Source: PubChem BioAssay (EPA / NIEHS)

# Read-out: Urokinase-type plasminogen activator receptor (uPAR), PLAUR (gene 5329)
# run description: BSK_CASM3C_uPAR: BioMAP Diversity Plus: CASM3C Assay for Urokinase-type plasminogen activator receptor (uPAR) Biomarker Activity (AID 2283054);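 also: cell-surface uPAR protein level quantified by ELISA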
# condition context: primary human coronary artery smooth muscle cells; actives raise or lower the signal
Active and inactive are the calls of the source. The calls were made as follows: active = hit-call score of the fitted dose curve at least 0.9, where 1 is the maximum; inactive = score below 0.9.
readout label: AC50

INSERT INTO assay_data (compound, readout_label, experimental_value) VALUES
  ('CCCCCCCCCCCCc1cccc(S(=O)(=O)O)c1', 'AC50', 'inactive'),
  ('CCOP(=O)(OCC)SCCSCC', 'AC50', 'inactive'),
  ('N#Cc1cccnc1', 'AC50', 'inactive'),
  ('CCOP(=O)(OCC)OC(=CCl)c1ccc(Cl)cc1Cl', 'AC50', '30.2 µM (active)'),
  ('Cc1ccc(OP(=O)(Oc2ccc(C)cc2C)Oc2ccc(C)cc2C)c(C)c1', 'AC50', 'inactive'),
  ('Cc1c([N+](=O)[O-])c(C)c([N+](=O)[O-])c(C(C)(C)C)c1[N+](=O)[O-]', 'AC50', 'inactive'),
  ('C=CC(Cl)CCl (centres undefined)', 'AC50', 'inactive'),
  ('Oc1c(Cl)cc(Cl)cc1Cl', 'AC50', 'inactive'),
  ('CC(C)(COCC1CO1)COCC1CO1 (centres undefined)', 'AC50', 'inactive'),
  ('O=C(N[C@H]1CN2CCC1CC2)c1ccc2c(c1)OCCO2', 'AC50', 'inactive'),
  ('Oc1cc(Cl)c(Cl)cc1Cl', 'AC50', 'inactive'),
  ('Oc1c(Br)cc(Br)cc1Br', 'AC50', 'inactive'),
  ('CCN(CC)C(=O)C(Cl)=C(C)OP(=O)(OC)OC', 'AC50', 'inactive'),
  ('CCOC(=O)CCN(SN(C)C(=O)Oc1cccc2c1OC(C)(C)C2)C(C)C', 'AC50', '33.3 µM (active)'),
  ('O=S(=O)(c1ccc(Cl)cc1)c1cc(Cl)c(Cl)cc1Cl', 'AC50', '20 µM (active)'),
  ('COCC(=O)N(c1c(C)cccc1C)[C@H](C)C(=O)OC', 'AC50', 'inactive'),
  ('O=[N+]([O-])c1ccc(Nc2ccccc2)cc1', 'AC50', 'inactive'),
  ('CC(C)=CC1C(C(=O)OCc2cccc(Oc3ccccc3)c2)C1(C)C (centres undefined)', 'AC50', 'inactive'),
  ('OCCN(CCO)CCO', 'AC50', 'inactive'),
  ('Cc1cc(C(C)(C)c2ccc(O)c(C)c2)ccc1O', 'AC50', '17.1 µM (active)'),
  ('c1ccc2sc(SNC3CCCCC3)nc2c1', 'AC50', 'inactive'),
  ('CCOP(=S)(OCC)OP(=S)(OCC)OCC', 'AC50', 'inactive'),
  ('CCOC(=O)CC(=O)CCl', 'AC50', 'inactive'),
  ('N#CCCC(Br)(C#N)CBr (centres undefined)', 'AC50', '15.6 µM (active)'),
  ('Oc1cccc(-c2ccccc2)c1', 'AC50', 'inactive'),
  ('Cc1cc(Cl)ccc1OC(C)C(=O)O (centres undefined)', 'AC50', 'inactive'),
  ('O=S(=O)(C(Cl)(Cl)Cl)C(Cl)(Cl)Cl', 'AC50', '3.04 µM (active)'),
  ('NC(=O)CCl', 'AC50', 'inactive'),
  ('O=C(CCl)NCO', 'AC50', 'inactive');
